Molecular target: Nitric oxide synthase 3 (Bos taurus)
Test: Inhibition of full length N-terminal his-tagged bovine eNOS (2 to 1205 residues) expressed in Escherichia coli at 10 uM preincubated for 15 mins followed by NADPH addition and measured after 30 mins by HPLC analysis relative to control
Conditions: time 45.0 min
Activity calls are given as the source filed them. No cut-off for these calls is given here.
parameterMeasured: inhibition

>>> endpointvalue("N=C(NCc1cccc(CNS(=O)(=O)c2ccc([N+](=O)[O-])cc2)c1)c1ccccc1")
"35%"
>>> endpointvalue("N=C(NCc1ccc(NS(=O)(=O)c2ccc([N+](=O)[O-])cc2)cc1)c1ccc(C(F)(F)F)cc1")
"inactive"
>>> endpointvalue("CC(=N)NCc1ccc(NS(=O)(=O)c2ccc([N+](=O)[O-])cc2)cc1")
"inactive"
>>> endpointvalue("CC(=N)NCc1cccc(CNS(=O)(=O)c2ccc(C)cc2)c1")
"inactive"
